TARGET ENTITY: UniProtKB P11511
EXPERIMENT DESCRIPTION: Inhibition of CYP19 in human H295R cells using [1beta-3H(N)]-androst-4-ene-3,17-dione at 10 uM after 24 hrs by tritiated water release assay
Format: cell-based
MEASURED METRIC: inhibition (INH)

Past entries and their recorded results:
[[record]]
smiles_repr = "CCOC(=O)c1cc(-c2ccccc2)nc2c1ccc1[nH]ccc12"
target_entity = "UniProtKB P11511"
assay_value = "Active"

[[record]]
smiles_repr = "Cc1cc(CO)c2ccc3[nH]ccc3c2n1"
target_entity = "UniProtKB P11511"
assay_value = "Not Active"

[[record]]
smiles_repr = "CCOC(=O)c1cc(-c2ccc(OC)cc2)nc2c1ccc1[nH]ccc12"
target_entity = "UniProtKB P11511"
assay_value = "Active"

[[record]]
smiles_repr = "CCOC(=O)c1cc(C)nc2c1ccc1[nH]ccc12"
target_entity = "UniProtKB P11511"
assay_value = "Not Active"

[[record]]
smiles_repr = "CCn1ccc2c3c(C(=O)O)cc(-c4ccccc4)nc3ccc21"
target_entity = "UniProtKB P11511"
assay_value = "Not Active"


Dear colleague, please send me the reported inhibition (INH) for `COc1ccc(-c2cc(C(=O)O)c3ccc4[nH]ccc4c3n2)cc1` when you can.
Not Active

Dear colleague, please send me the reported inhibition (INH) for `COc1ccc(-c2cc(Cn3cncn3)c3ccc4[nH]ccc4c3n2)cc1` when you can.
Not Active

Dear colleague, please send me the reported inhibition (INH) for `CCOC(=O)c1cc(-c2ccccc2)nc2ccc3c(ccn3CC)c12` when you can.
Not Active

Dear colleague, please send me the reported inhibition (INH) for `Cc1cc(C(=O)O)c2ccc3[nH]ccc3c2n1` when you can.
Not Active

Dear colleague, please send me the reported inhibition (INH) for `COc1ccc(-c2cc(Cn3ccnc3)c3ccc4[nH]ccc4c3n2)cc1` when you can.
Not Active

Dear colleague, please send me the reported inhibition (INH) for `CCOC(=O)c1cc(-c2ccccc2)nc2c1ccc1c2ccn1CC` when you can.
Not Active

Dear colleague, please send me the reported inhibition (INH) for `CCn1ccc2c3nc(-c4ccccc4)cc(CO)c3ccc21` when you can.
Not Active

Dear colleague, please send me the reported inhibition (INH) for `c1ccc(-c2cc(Cn3ccnc3)c3ccc4[nH]ccc4c3n2)cc1` when you can.
Not Active

* * *

Test system Aromatase (Homo sapiens, UniProt P11511), IC50 listed for each of the molecules.
Report the value in µM with no unit label.

Past entries and their recorded results:
[[record]]
smiles_repr = "COc1ccc(-c2cc(Cn3ccnc3)c3ccc4[nH]ccc4c3n2)cc1"
measured_metric = "IC50"
assay_value = 0.454

[[record]]
smiles_repr = "CCn1ccc2c3nc(-c4ccccc4)cc(Cn4ccnc4)c3ccc21"
measured_metric = "IC50"
assay_value = 0.0053

[[record]]
smiles_repr = "Cc1cc(CO)c2ccc3[nH]ccc3c2n1"
measured_metric = "IC50"
assay_value = 4.15

[[record]]
smiles_repr = "CCn1ccc2c3c(C(=O)O)cc(-c4ccccc4)nc3ccc21"
measured_metric = "IC50"
assay_value = 1.47


Please find the next molecule below.
Dear colleague, please send me the reported IC50 for `OCc1cc(-c2ccccc2)nc2c1ccc1[nH]ccc12` when you can.
2.11

* * *

System: NCI-H295R
EXPERIMENT DESCRIPTION: Growth inhibition of estrogen-sensitive human NCI-H295R cells after 72 hrs by MTT assay
Type: functional
MEASURED METRIC: GI50 (µM)
Report the value in µM with no unit label.

Dear colleague, please send me the reported GI50 for `CCn1ccc2c3c(Cn4ccnc4)cc(-c4ccccc4)nc3ccc21` when you can.
3.8

Dear colleague, please send me the reported GI50 for `CCn1ccc2c3nc(-c4ccccc4)cc(Cn4ccnc4)c3ccc21` when you can.
19

Dear colleague, please send me the reported GI50 for `c1ccc(-c2cc(Cn3ccnc3)c3ccc4[nH]ccc4c3n2)cc1` when you can.
36.5

Dear colleague, please send me the reported GI50 for `COc1cccc(-c2cc(=O)c3ccc4[nH]ccc4c3[nH]2)c1` when you can.
0.7

Dear colleague, please send me the reported GI50 for `CCn1ccc2c3c(Cn4cncn4)cc(-c4ccccc4)nc3ccc21` when you can.
75.3

Where do these numbers come from? They come from ChEMBL document CHEMBL2440047.
